Source of measurements: patent US20240376097A1

Quick list: IC50 per entry.
# SYSTEM_TESTED: Recombinant human Bcl-2 protein (Homo sapiens (Human), UniProt P10415)
# Sequence (P10415 whole entry): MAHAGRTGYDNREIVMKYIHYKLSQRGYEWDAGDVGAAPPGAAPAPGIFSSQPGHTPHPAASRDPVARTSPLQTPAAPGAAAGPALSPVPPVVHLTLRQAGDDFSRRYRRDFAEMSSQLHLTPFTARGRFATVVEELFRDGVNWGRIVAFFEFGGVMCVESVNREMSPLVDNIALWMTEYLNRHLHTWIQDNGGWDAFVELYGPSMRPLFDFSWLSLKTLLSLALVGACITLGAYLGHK
# METHOD_DESCRIPTION: Bcl-2 TR-FRET Assay
# Type: binding
# TEST_CONDITIONS: Bcl-2 wild type, TR-FRET; read-out: Biochemical assay (IC50, nM) Bcl-2 WT
QUANTITY_KIND: IC50 (nM)

COMPOUND	QUANTITY_KIND	RECORDED_RESULT
CC(C)c1ccccc1C1CN(Cc2cccc3c2N(C)CCO3)CCN1C1CC2(CCN(c3ccc(C(=O)NS(=O)(=O)c4ccc(NC[C@H]5CC[C@](C)(O)CC5)c([N+](=O)[O-])c4)c(Oc4cnc5[nH]ccc5c4)c3)CC2)C1 (some centres unmarked)	IC50	0.24
COc1c(Cl)cccc1CN1CCN(C2CC3(CCN(c4ccc(C(=O)NS(=O)(=O)c5ccc(NC[C@H]6CC[C@](C)(O)CC6)c([N+](=O)[O-])c5)c(Oc5cnc6[nH]ccc6c5)c4)CC3)C2)C(c2ccccc2C(C)C)C1 (some centres unmarked)	IC50	0.37
COc1cc(CN2CCN(C3CC4(CCN(c5ccc(C(=O)NS(=O)(=O)c6ccc(NC[C@H]7CC[C@](C)(O)CC7)c([N+](=O)[O-])c6)c(Oc6cnc7[nH]ccc7c6)c5)CC4)C3)C(c3ccccc3C(C)C)C2)ccc1Cl (some centres unmarked)	IC50	0.42
COc1cc(CN2CCN(C3CC4(C3)CN(c3ccc(C(=O)NS(=O)(=O)c5ccc(NC[C@H]6CC[C@](C)(O)CC6)c([N+](=O)[O-])c5)c(Oc5cnc6[nH]cc(F)c6c5)c3)C4)[C@H](c3ccccc3C(C)C)C2)cc(F)c1OC	IC50	0.19
CC(C)c1ccccc1C1CN(Cc2cccc3occc23)CCN1C1CC2(CCN(c3ccc(C(=O)NS(=O)(=O)c4ccc(NC[C@H]5CC[C@](C)(O)CC5)c([N+](=O)[O-])c4)c(Oc4cnc5[nH]ccc5c4)c3)CC2)C1 (some centres unmarked)	IC50	0.7
CC(C)c1ccccc1[C@@H]1CN(Cc2cnn(C)c2)CCN1C1CC2(CCN(c3ccc(C(=O)NS(=O)(=O)c4ccc(NC[C@H]5CC[C@](C)(O)CC5)c([N+](=O)[O-])c4)c(Oc4cnc5[nH]ccc5c4)c3)CC2)C1 (single isomer, unassigned) [Example 22b]	IC50	0.038
COc1cc(CN2CCN(C3CC4(CCN(c5ccc(C(=O)NS(=O)(=O)c6ccc(NC[C@H]7CC[C@](C)(O)CC7)c([N+](=O)[O-])c6)c(Oc6cnc7[nH]ccc7c6)c5)CC4)C3)[C@H](c3ccccc3C(C)C)C2)cc2c1OCC2	IC50	0.076
COc1ccc(CN2CCN(C3CC4(CCN(c5ccc(C(=O)NS(=O)(=O)c6ccc(NC[C@H]7CC[C@](C)(O)CC7)c([N+](=O)[O-])c6)c(Oc6cnc7[nH]cc(Cl)c7c6)c5)CC4)C3)[C@H](c3ccccc3C(C)C)C2)cc1	IC50	0.54
